assay notes: Protein binding in mouse plasma
Binning rule for recorded fraction unbound: lowest (below 0.03), middle (0.03 to below 0.1), highest (0.1 or more)

Please indicate the class for CCP(=O)(OC)c1ccc2nc(-c3cncc(C(F)(F)F)c3)oc2c1 (stereo not given) based on its fraction unbound. highest

GET /class?item= CCP(=O)(OC)c1ccc2oc(-c3cccc(OC)c3)nc2c1 (stereo not given) middle

Category of CCP(=O)(OC)c1ccc2nc(-c3cncc(C(F)F)c3)oc2c1 (stereo not given) : highest

Which bin should I file CCP(=O)(OC)c1ccc2oc(-c3ccc4c(c3)OC(F)(F)O4)nc2c1 (stereo not given) under? lowest

Sort into band: CCP(=O)(OC)c1ccc2oc(-c3cncc(C(F)F)c3)nc2c1 (stereo not given) highest

Each compound maps to one class by fraction unbound. Which class for CCP(=O)(OC)c1ccc2nc(-c3cccc(OC(F)F)c3)oc2c1 (stereo not given) ? middle

Band of CCP(=O)(OC)c1ccc2oc(-c3cccc(C(F)F)c3)nc2c1 (stereo not given) ? middle

Place this compound in its band: CCP(=O)(OC)c1ccc2nc(-c3ccc4c(c3)OC(F)(F)O4)oc2c1 (stereo not given) lowest

Sort CCP(=O)(OC)c1ccc2oc(-c3cncc(C(F)(F)F)c3)nc2c1 (stereo not given) into one of the categories. highest

GET /class?item= CCP(=O)(OC)c1ccc2nc(-c3ccnc(OC(F)F)c3)oc2c1 (stereo not given) middle

Please let me know in which category the item CCP(=O)(OC)c1ccc2oc(-c3ccnc(OC(F)F)c3)nc2c1 (stereo not given) belongs. highest

Category lookup for the compound CCP(=O)(OC)c1ccc2oc(-c3cccnc3C(F)(F)F)nc2c1 (stereo not given) highest

Could you place CCP(=O)(OC)c1ccc2nc(-c3ccc(C(F)F)cc3)oc2c1 (stereo not given) in its proper category? Many thanks. middle

Which class is correct for the following compound? CCP(=O)(OC)c1ccc2nc(-c3cccnc3C(F)(F)F)oc2c1 (stereo not given) highest

Hey, which category is CCP(=O)(OC)c1ccc2oc(-c3ccc(C(F)F)cc3)nc2c1 (stereo not given) in, do you know? lowest
